Assay: High-throughput drug toxicity screening in the BPDCN cell line Cal-1 (AID 1224825);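 also: cells exposed to compounds for 48 h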
Conditions: Cal-1 BPDCN cell viability, qHTS; at 45.8 µM (top of the series) unless noted
Text: Blastic plasmacytoid dendritic cell neoplasm (BPDCN) is a rare, aggressive and largely incurable hematologic malignancy originating from plasmacytoid dendritic cells (pDCs). Although an initial response to chemotherapy is common, BPDCN prognosis is extremely poor and most patients relapse with drug-resistant disease leading to a median overall survival of ~1 year after diagnosis. […]
Criterion: viability (% of control) strictly less than 10%. Met: TRUE. Not met: FALSE.

1. Cc1ccc(-c2ncn(-c3ccc(Nc4nccc(-c5cccc(N6CCOCC6)c5)n4)cc3)n2)cn1 | TRUE
2. CC[C@H](CO)Nc1nc(NCc2ccccc2)c2ncn(C(C)C)c2n1 | FALSE
3. CN(c1ncccc1CNc1nc(Nc2ccc3c(c2)CC(=O)N3)ncc1C(F)(F)F)S(C)(=O)=O | TRUE
4. CCCn1c(=O)c2[nH]c(-c3cnn(Cc4cccc(C(F)(F)F)c4)c3)nc2n(CC)c1=O | FALSE
5. C[C@@H]1COC(Nc2ccc3ncnc(Nc4ccc(OCc5nccs5)c(Cl)c4)c3c2)=N1 | FALSE
6. CCN1CCN(CC(=O)Nc2ccc(-c3cccc4c(=O)cc(N5CCOCC5)oc34)c3sc4ccccc4c23)CC1 | TRUE
7. O=C(O)CO.[NH2-].[NH2-].[Pt+2] | FALSE
8. Cc1cc(C(=O)N2CCN(c3cccc(Cl)c3)CC2)n(-c2ccccc2)n1 | FALSE
9. Nc1cccc(-c2cc3c(Oc4cccc(O)c4)ncnc3[nH]2)c1 | TRUE
10. Cc1ccc(CN2CCNCC2)cc1NC(=O)CNc1ccc(F)c(F)c1 | FALSE
11. Cn1cc(-c2ccncc2)c(-c2ccc(OCc3ccc4ccccc4n3)cc2)n1 | FALSE
12. CC(=O)OCCN1C(=O)c2c(C)nc3ccc(S(=O)(=O)N4CCOCC4)cc3c2C1=O | FALSE
13. O=C(C=Cc1cccnc1)NCCCCC1CCN(C(=O)c2ccccc2)CC1 | TRUE
14. CC(C)(C)NC(=O)[C@H]1CN(Cc2cccnc2)CCN1C[C@@H](O)C[C@@H](Cc1ccccc1)C(=O)N[C@H]1c2ccccc2C[C@H]1O | FALSE
15. C#Cc1cccc(Nc2ncnc3cc(OC)c(OCCCCCCC(=O)NO)cc23)c1 | TRUE
16. Cc1cn2cc(C(=O)N(C)CCO)cc(N[C@@H]3CCOc4cccc(C)c43)c2n1 | FALSE
17. NC(=O)c1cccc2cn(-c3ccc([C@@H]4CCCNC4)cc3)nc12 | TRUE
18. CN(C)c1nc(Cc2ccc(NC(=O)c3ccc4ccccc4c3)cc2)nc(Cl)c1CC(=O)O | FALSE
19. CC1(C)OC2=C(C(=O)c3ccccc3C2=O)[C@H](NCc2ccccc2)[C@H]1O | TRUE
20. O=C(Nc1nc2cccc(-c3ccc(CN4CCS(=O)(=O)CC4)cc3)n2n1)C1CC1 | TRUE
21. Cc1cc(Nc2ncnc3ccc(-c4ccc(CNCCS(C)(=O)=O)o4)cc23)ccc1Oc1ccn2ncnc2c1 | TRUE
22. Fc1cc(-c2cccc3ncc(-c4cnn(C5CCNCC5)c4)nc23)cc(F)c1CN1CCOCC1 | TRUE
23. Cc1cc(Nc2cc(CN3CCOCC3)c3nc(C)c(Cc4ccc(Cl)cc4F)n3n2)n[nH]1 | TRUE
24. COC(=O)Nc1nc2ccc(C(=O)c3ccc(F)cc3)cc2[nH]1 | FALSE
25. Cc1cc(Nc2nc(N[C@@H](C)c3ccc(F)cc3)c(C#N)cc2F)n[nH]1 | FALSE
26. O=C(CCCCCCNC(=O)c1cnc(N(c2ccccc2)c2ccccc2)nc1)NO | TRUE
27. Cc1nc(N)ncc1-c1nc(N2CCOCC2)c2sc(C(C)(C)O)cc2n1 | FALSE
28. COc1cc2c(Oc3ccc4[nH]c(C)cc4c3F)ncnc2cc1OCCCN1CCCC1 | TRUE
29. CCc1cc2c(cc1N1CCC(N3CCOCC3)CC1)C(C)(C)c1[nH]c3cc(C#N)ccc3c1C2=O | FALSE
30. C=CC(=O)N1CCC[C@@H](n2nc(-c3ccc(Oc4ccccc4)cc3)c3c(N)ncnc32)C1 | TRUE
31. CC(C)(C)c1cnc(CSc2cnc(NC(=O)C3CCNCC3)s2)o1 | TRUE
32. CCCCN1CCC(CNC(=O)c2c3n(c4ccccc24)CCCO3)CC1 | TRUE
33. CCOc1ccccc1OCCNC(C)Cc1ccc(OC)c(S(N)(=O)=O)c1 (centres undefined) | FALSE
34. CN1CCC(CNc2ccc3ncc(-c4cccc(OC(F)(F)F)c4)n3n2)CC1 | TRUE
35. COc1cc2c(Oc3ccc(-c4cnc(Nc5ccc(F)cc5)n(C)c4=O)cc3F)ccnc2cc1OCCCN1CCOCC1 | TRUE
36. CC(C)c1noc(N2CCC(COc3ccc(-c4ccc(S(C)(=O)=O)cc4)nc3)CC2)n1 | FALSE
37. CCn1cc(-c2ccnc3[nH]c(-c4cccc(CN(C)C)c4)cc23)c(-c2ccc(NC(=O)N(C)C)cc2)n1 | TRUE
38. C=C1C(=CC=C2CCCC3(C)[C@@H]([C@H](C)C=CC=CC(O)(CC)CC)CC[C@@H]23)C[C@@H](O)C[C@@H]1O (some centres undefined) | TRUE
